Reference source: patent US8236533B2

Assay: physchem
Settings: 50% DMF in water, pH 9.1, aqueous with cosolvent or surfactant or cyclodextrin, thermodynamic from solid
Test readout: solubility

Record request: solubility value, item "N[C@@H](CSSC[C@H](N)C(=O)O)C(=O)O"
~9000 µg/mL

----------
Experiment: aqueous solubility
Conditions: water, 37 °C, pH 9.1, water
Test readout: solubility

Record request: solubility value, item "N[C@@H](CSSC[C@H](N)C(=O)O)C(=O)O"
~5000 µg/mL

----------
Test: physchem
Test readout: solubility

Record request: solubility value, item COC(=O)[C@@H](N)CSSC[C@H](N)C(=O)OC.Cl.Cl [CDME, cystine dimethyl ester dihydrochloride]
> 20 mg/mL

----------
Assay: aqueous solubility
Conditions: water
Test readout: solubility

Record request: solubility value, item "CC(=O)NCSC[C@H](N)C(=O)O"
2000 mM

----------
Test: aqueous solubility
Conditions: aqueous solution, pH 3, aqueous buffer
Test readout: solubility (µg/mL)
// units = µg/mL; emit number, no label

Record request: solubility value, item "N[C@@H](CSSC[C@H](N)C(=O)O)C(=O)O"
100
